procedure_summary: xn = mol fraction of the nth substance listed
condition_summary: 318.15 K; 101 kPa; x1 = 0.1
Kindly state viscosity for each of the entries shown.
Give the value, in units of mPa·s, as a plain number.

Q) Which measured viscosity value corresponds to [Li+].[O-][Cl+3]([O-])([O-])[O-] + O=S1(=O)CCCC1 ?
A) 18.28

Q) Which measured viscosity value corresponds to CCOC(=O)[C@@H](O)[C@H](O)C(=O)OCC + CCCO ?
A) 1.694

Q) Which measured viscosity value corresponds to CCOC(=O)[C@@H](O)[C@H](O)C(=O)OCC + CC(C)CCO ?
A) 2.416

Q) Which measured viscosity value corresponds to CCOC(=O)[C@@H](O)[C@H](O)C(=O)OCC + CC(C)CO ?
A) 2.249

Q) Which measured viscosity value corresponds to CC(C)O + O ?
A) 1.261

---

condition_summary: 308.15 K; 101.33 kPa
recorded_endpoint: viscosity (mPa·s)
Give the value, in units of mPa·s, as a plain number.

Q) Which measured viscosity value corresponds to CCCCCN ?
A) 0.523

Q) Which measured viscosity value corresponds to CCCNCCC ?
A) 0.444

Q) Which measured viscosity value corresponds to CC(C)O ?
A) 1.494

Q) Which measured viscosity value corresponds to Cc1ccccc1[N+](=O)[O-] ?
A) 1.727

Q) Which measured viscosity value corresponds to Cc1cccc([N+](=O)[O-])c1 ?
A) 1.692

---

procedure_summary: xn = mol fraction of the nth substance listed
condition_summary: 298.15 K; 101 kPa; x1 = 0.2
Param threshold (6 mPa·s) applies to viscosity; output 1 (yes) when value >= threshold, 0 (no) when value < threshold.

Q) // inclusive: viscosity at least 6 mPa·s? input: CCOC(=O)[C@@H](O)[C@H](O)C(=O)OCC + CCCO
A) 0 (no)

Q) // inclusive: viscosity at least 6 mPa·s? input: CCOC(C)(C)C + COCCO
A) 0 (no)

Q) // inclusive: viscosity at least 6 mPa·s? input: CCOC(=O)[C@@H](O)[C@H](O)C(=O)OCC + CCCCCCO
A) 1 (yes)

---

procedure_summary: xn = mol fraction of the nth substance listed
condition_summary: 298.15 K; 101 kPa; x1 = 0.8
Kindly state viscosity for each of the entries shown.
Give the value, in units of mPa·s, as a plain number.

Q) Which measured viscosity value corresponds to CCCCCl + c1ccccc1 ?
A) 0.454

Q) Which measured viscosity value corresponds to CCOC(=O)[C@@H](O)[C@H](O)C(=O)OCC + CCCCCCO ?
A) 50.5

Q) Which measured viscosity value corresponds to CCOC(C)(C)C + COCCO ?
A) 0.584

Q) Which measured viscosity value corresponds to CCOC(C)(C)C + CCCCOCCO ?
A) 0.673

---

procedure_summary: xn = mol fraction of the nth substance listed
condition_summary: 303.15 K; 101 kPa; x1 = 0.1
± gives the uncertainty stated by the source.
Kindly state viscosity for each of the entries shown.
Numeric answer plus unit only.

Q) Which measured viscosity value corresponds to CC(C)O + O ?
A) 2.041 ± 0.014 mPa·s

Q) Which measured viscosity value corresponds to CCOC(C)(C)C + CCCCOCCO ?
A) 2.038 ± 0.052 mPa·s

Q) Which measured viscosity value corresponds to CCOC(=O)[C@@H](O)[C@H](O)C(=O)OCC + CC(C)CCO ?
A) 3.768 ± 0.036 mPa·s

Q) Which measured viscosity value corresponds to CCOC(=O)[C@@H](O)[C@H](O)C(=O)OCC + CCCO ?
A) 2.467 ± 0.018 mPa·s

Q) Which measured viscosity value corresponds to CCOC(=O)[C@@H](O)[C@H](O)C(=O)OCC + CC(C)CO ?
A) 3.601 ± 0.03 mPa·s

Q) Which measured viscosity value corresponds to CCOC(C)(C)C + COCCO ?
A) 1.246 ± 0.016 mPa·s
